test: Retention of arrayed peptides on a polypropylene sheet after successive washes
Type: physicochemical
protocolConditions: Test array; after first wash; slide background subtracted
No end group written: not given here. TAMRA = rhodamine dye label at the N-terminus (mixture of 5- and 6-isomers)
Assign Corrected signal to each entry below.

Find the recorded Corrected signal belonging to TAMRA-F-G-F-G-F-G-F-S-F-A-F-D-F-G-F ({TAMRA}-FGFGFGFSFAFDFGF) [Peptide P1-3] and report it.
16,700,014

Find the recorded Corrected signal belonging to TAMRA-F-G-F-G-F-G-F-G-F-S-F-A-F-D-F-G-F ({TAMRA}-FGFGFGFGFSFAFDFGF) [Peptide P1-4] and report it.
35,325,352

Find the recorded Corrected signal belonging to TAMRA-F-G-F-G-F-S-F-A-F-D-F-G-F ({TAMRA}-FGFGFSFAFDFGF) [Peptide P1-2] and report it.
15,580,260

Find the recorded Corrected signal belonging to TAMRA-F-G-F-G-F-G-F-G-F-G-F-S-F-A-F-D-F-G-F ({TAMRA}-FGFGFGFGFGFSFAFDFGF) [Peptide P1-5] and report it.
47,493,774

Find the recorded Corrected signal belonging to TAMRA-F-G-F-S-F-A-F-D-F-G-F ({TAMRA}-FGFSFAFDFGF) [Peptide P1-1] and report it.
3,126,578
